test system: LG0567-F671-PDC KRAS tumor spheroid viability; test: Anticancer human tumor LG0567-F671-PDC patient-derived lung adenocarcinoma cell line growth inhibition [KRAS2]; conditions: second compound 0.0316 µM; first compound 0.001 µM; hits give low values; spheroids with HUVEC and MSC
Recorded viability, T/C, one value per entry.
measure-name: viability, T/C (%)

* CC(=O)Nc1cccc(-n2c(=O)n(C3CC3)c(=O)c3c(Nc4ccc(I)cc4F)n(C)c(=O)c(C)c32)c1 + C=CC(=O)N1CCN(c2nc(OCC3CCCN3C)nc3c2CCN(c2cccc4cccc(C)c24)C3)CC1CC#N | 34.5
* Cn1ncnc1[C@H]1c2n[nH]c(=O)c3cc(F)cc(c23)N[C@@H]1c1ccc(F)cc1 + C=CC(=O)N1CCN(c2nc(OCC3CCCN3C)nc3c2CCN(c2cccc4cccc(C)c24)C3)CC1CC#N | 41.6
* CC(C)n1nc(-c2ccc3oc(N)nc3c2)c2c(N)ncnc21 + C=CC(=O)N1CCN(c2nc(OCC3CCCN3C)nc3c2CCN(c2cccc4cccc(C)c24)C3)CC1CC#N | 28.2
* CN(C)C/C=C/C(=O)Nc1cc2c(Nc3ccc(F)c(Cl)c3)ncnc2cc1O[C@H]1CCOC1 + C=CC(=O)N1CCN(c2nc(OCC3CCCN3C)nc3c2CCN(c2cccc4cccc(C)c24)C3)CC1CC#N | 40.4

###

test system: LG0567-F671-PDC KRAS tumor spheroid viability; experiment: Anticancer human tumor LG0567-F671-PDC cell line growth inhibition [KRAS2]; settings: second compound 10 µM; first compound 0.00316 µM; hits give low values; spheroids with HUVEC and MSC;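 also: drug exposure lasted seven days after spheroids formed for three days; 100% = DMSO vehicle control viability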
Binary label based on viability, T/C with cut-off 20%: below gives 1 (yes), not below gives 0 (no).

* CC(C)n1nc(-c2ccc3oc(N)nc3c2)c2c(N)ncnc21 + COc1cc2nc(C)nc(NC(C)c3cc(N)cc(C(F)(F)F)c3)c2cc1OC1CCOC1 | 0 (no)
* Cn1ncnc1[C@H]1c2n[nH]c(=O)c3cc(F)cc(c23)N[C@@H]1c1ccc(F)cc1 + COc1cc2nc(C)nc(NC(C)c3cc(N)cc(C(F)(F)F)c3)c2cc1OC1CCOC1 | 0 (no)
* CN(C)C/C=C/C(=O)Nc1cc2c(Nc3ccc(F)c(Cl)c3)ncnc2cc1O[C@H]1CCOC1 + CC1OCC2(CCN(c3cnc(Sc4ccnc(N)c4Cl)c(N)n3)CC2)C1N | 1 (yes)
* CC(=O)Nc1cccc(-n2c(=O)n(C3CC3)c(=O)c3c(Nc4ccc(I)cc4F)n(C)c(=O)c(C)c32)c1 + CNCc1ccccc1-c1csc(C(C)Nc2nc(C)nc3cc(OC)c(OC)cc23)c1 | 1 (yes)
* CC(C)n1nc(-c2ccc3oc(N)nc3c2)c2c(N)ncnc21 + CNCc1ccccc1-c1csc(C(C)Nc2nc(C)nc3cc(OC)c(OC)cc23)c1 | 1 (yes)
* CC(C)n1nc(-c2ccc3oc(N)nc3c2)c2c(N)ncnc21 + CC1OCC2(CCN(c3cnc(Sc4ccnc(N)c4Cl)c(N)n3)CC2)C1N | 1 (yes)
* CCN1CCN(Cc2ccc(Nc3ncc(F)c(-c4cc(F)c5nc(C)n(C(C)C)c5c4)n3)nc2)CC1 + COc1cc2nc(C)nc(NC(C)c3cc(N)cc(C(F)(F)F)c3)c2cc1OC1CCOC1 | 0 (no)
* Cn1ncnc1[C@H]1c2n[nH]c(=O)c3cc(F)cc(c23)N[C@@H]1c1ccc(F)cc1 + C=CC(=O)N1CCN(c2nc(=O)n(-c3c(C)ccnc3C(C)C)c3nc(-c4c(O)cccc4F)c(F)cc23)C(C)C1 | 0 (no)
* CC(=O)Nc1cccc(-n2c(=O)n(C3CC3)c(=O)c3c(Nc4ccc(I)cc4F)n(C)c(=O)c(C)c32)c1 + C=CC(=O)N1CCN(c2nc(=O)n(-c3c(C)ccnc3C(C)C)c3nc(-c4c(O)cccc4F)c(F)cc23)C(C)C1 | 1 (yes)
* CC(=O)Nc1cccc(-n2c(=O)n(C3CC3)c(=O)c3c(Nc4ccc(I)cc4F)n(C)c(=O)c(C)c32)c1 + COc1cc2nc(C)nc(NC(C)c3cc(N)cc(C(F)(F)F)c3)c2cc1OC1CCOC1 | 1 (yes)
* Cn1ncnc1[C@H]1c2n[nH]c(=O)c3cc(F)cc(c23)N[C@@H]1c1ccc(F)cc1 + CC1OCC2(CCN(c3cnc(Sc4ccnc(N)c4Cl)c(N)n3)CC2)C1N | 1 (yes)
